Source listed as the Human Domainome abundance scans (Beltran et al. 2025).

abundance fitness values by entry
B1: Neutrophil cytosol factor 2, residues 456 to 514; numbered along this chain, P19878 (parent)
chain: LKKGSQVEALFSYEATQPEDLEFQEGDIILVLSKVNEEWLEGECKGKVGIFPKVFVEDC

- Variants of: B1
- assayText: abundance fitness (aPCA) (normalised: wild type 0, dead -1); higher = more abundant; growth selection in yeast, the domain comes from the species named
- protocolConditions: Homo sapiens
Lab note: record the figure alone, no unit after it.

get_value(item= K53N , readout=abundance fitness) returns -0.378

Record E14H , field abundance fitness: 0.236

Data point: E19A ; abundance fitness = -0.172

Others:
Lab note: measured abundance fitness of E14P was 0.023

Documented abundance fitness of S12R : -0.315

Lookup result for I29G ; measured abundance fitness: -0.365
